Every entry's value here was drawn from patent US10028956B2.

# system tested: AXL (Homo sapiens, UniProt P30530)
# Sequence (P30530 26-894): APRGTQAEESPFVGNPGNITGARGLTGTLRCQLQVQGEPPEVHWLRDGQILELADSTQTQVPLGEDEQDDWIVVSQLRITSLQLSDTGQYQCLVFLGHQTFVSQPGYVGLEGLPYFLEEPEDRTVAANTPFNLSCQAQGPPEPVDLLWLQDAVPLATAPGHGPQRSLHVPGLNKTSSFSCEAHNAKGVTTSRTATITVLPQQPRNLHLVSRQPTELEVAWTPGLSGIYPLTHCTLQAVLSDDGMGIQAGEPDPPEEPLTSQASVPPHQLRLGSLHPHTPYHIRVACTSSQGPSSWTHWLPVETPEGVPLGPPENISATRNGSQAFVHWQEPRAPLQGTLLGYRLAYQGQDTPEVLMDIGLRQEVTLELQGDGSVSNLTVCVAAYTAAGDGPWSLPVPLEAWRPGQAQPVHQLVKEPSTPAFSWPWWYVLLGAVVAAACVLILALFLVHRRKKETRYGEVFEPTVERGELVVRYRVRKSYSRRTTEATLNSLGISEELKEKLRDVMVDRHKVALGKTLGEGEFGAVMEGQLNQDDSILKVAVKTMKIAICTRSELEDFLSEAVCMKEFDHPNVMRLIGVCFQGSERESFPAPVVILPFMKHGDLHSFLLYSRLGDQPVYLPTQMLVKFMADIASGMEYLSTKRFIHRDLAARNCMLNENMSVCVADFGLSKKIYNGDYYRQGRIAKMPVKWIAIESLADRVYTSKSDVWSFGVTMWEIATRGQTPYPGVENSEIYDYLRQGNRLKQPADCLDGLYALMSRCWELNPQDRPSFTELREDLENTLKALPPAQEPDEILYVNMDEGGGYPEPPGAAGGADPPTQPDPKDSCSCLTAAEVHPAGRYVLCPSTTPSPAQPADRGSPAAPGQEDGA
# protocol details: Cellular potency in NCI-H1299 human NSCL cells
# Type: cell-based
# Set-up: endogenous in cells; host or cells: NCI-H1299 human NSCLC cells (culture; subcutaneous xenograft in mice)
metric name: IC50 (nM)
Answers are plain numbers, in nM.

So what does the record say about IC50 for COc1cc2nccc(Oc3ccc(NC(=O)c4cn(C(C)C)c(=O)n(-c5ccc(F)cc5)c4=O)cc3F)c2cc1OC ?
0.1

* * *

# protocol details: PK in dog
# condition details: in vivo, intravenous, 0.5 mg/kg i.v. and p.o.
metric name: clearance

So what does the record say about clearance for COc1cc2nccc(Oc3ccc(NC(=O)c4cn(C(C)C)c(=O)n(-c5ccc(F)cc5)c4=O)cc3F)c2cc1OC ?
0.5 mL/min/kg
